Catalogue of compounds with associated pIC50
- assayed.target: BCR-NTRK2 BaF3 cells (Homo sapiens)
- Construct: fused on or other part: P11274 (Breakpoint cluster region protein)
- Sequence (Q16620 538-807): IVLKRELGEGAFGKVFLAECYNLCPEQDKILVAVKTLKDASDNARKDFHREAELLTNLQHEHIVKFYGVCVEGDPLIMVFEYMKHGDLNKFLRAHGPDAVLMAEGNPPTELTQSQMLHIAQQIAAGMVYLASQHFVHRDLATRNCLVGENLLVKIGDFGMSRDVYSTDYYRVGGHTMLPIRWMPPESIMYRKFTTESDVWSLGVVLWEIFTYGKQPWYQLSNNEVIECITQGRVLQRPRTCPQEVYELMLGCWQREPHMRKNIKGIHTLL
- test.method.notes: BaF3 BCR-NTRK2 cell proliferation assay (ATPlite)
- condition.context: read-out: Inhibition of Cell Proliferation IC50, BCR/BaF3 TrkB
pIC50: −log10 of the molar value.

Please review the following examples before continuing.
                                        mol                       assayed_target  observable  measured_value
0  CCn1cc(Nc2ccc(Cc3c[nH]c4ncnc(C)c34)c(F)n2)cn1  BCR-NTRK2 BaF3 cells (Homo sapiens)       pIC50          > 6.00
1  Cc1cnc2[nH]cc(Cc3cnc(Nc4cc(OC(C)C)n[nH]4)nc3)c2c1  BCR-NTRK2 BaF3 cells (Homo sapiens)       pIC50          < 6.00
2  CCn1cc(Nc2ncc(Cc3c[nH]c4ncc(C)cc34)cn2)cn1  BCR-NTRK2 BaF3 cells (Homo sapiens)       pIC50          > 6.00
3  Cc1ccc(Nc2ccc(Cc3c[nH]c4ncnc(C5CC5)c34)c(F)n2)cn1  BCR-NTRK2 BaF3 cells (Homo sapiens)       pIC50          > 7.00
4  COc1ccc(Nc2ccc(C(=O)c3c[nH]c4ncnc(NCC5CC5)c34)c(F)n2)cn1  BCR-NTRK2 BaF3 cells (Homo sapiens)       pIC50          > 8.00
5  CCc1ccc(Nc2ccc(Cc3c[nH]c4ncnc(C5CC5)c34)c(F)n2)cn1  BCR-NTRK2 BaF3 cells (Homo sapiens)       pIC50          > 8.00

[ask] Look up pIC50 for this compound: COc1cncc(Nc2ccc(C(=O)c3c[nH]c4ncnc(NCC(F)(F)F)c34)c(F)n2)c1
[reply] < 6.00

[ask] What about this compound? Nc1ncnc2[nH]cc(C(=O)c3ccc(Nc4ccc(C5CC5)nc4)nc3F)c12
[reply] > 8.00

Data credit: patent US8901118B2
